B1: OR4K15 (parent)
chain: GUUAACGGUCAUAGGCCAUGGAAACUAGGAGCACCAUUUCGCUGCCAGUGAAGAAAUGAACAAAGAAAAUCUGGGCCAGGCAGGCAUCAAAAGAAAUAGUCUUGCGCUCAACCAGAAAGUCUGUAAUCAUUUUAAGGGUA

- Variants of: B1
- assay-remarks: self-cleavage, relative activity (ratio to wild type); higher = more cleavage; in vitro, sequencing; the parent is a self-cleaving ribozyme
# key: entry, value: self-cleavage
measured-property: self-cleavage

[[record]]
mutation_code = "A22G A140G"
measured_property = "self-cleavage"
quantitative_readout = 1.85

[[record]]
mutation_code = "A5U U122A"
measured_property = "self-cleavage"
quantitative_readout = 1.48

[[record]]
mutation_code = "U87A"
measured_property = "self-cleavage"
quantitative_readout = 1.65

[[record]]
mutation_code = "G1U A95G"
measured_property = "self-cleavage"
quantitative_readout = 0.56

[[record]]
mutation_code = "A27U A86G"
measured_property = "self-cleavage"
quantitative_readout = 1.43

[[record]]
mutation_code = "G75U U127C"
measured_property = "self-cleavage"
quantitative_readout = 0.11

[[record]]
mutation_code = "U9A A91G"
measured_property = "self-cleavage"
quantitative_readout = 0.37

[[record]]
mutation_code = "A111U A125G"
measured_property = "self-cleavage"
quantitative_readout = 0.01

[[record]]
mutation_code = "A91G A118G"
measured_property = "self-cleavage"
quantitative_readout = 0.94

[[record]]
mutation_code = "G50A U87A"
measured_property = "self-cleavage"
quantitative_readout = 1.75

[[record]]
mutation_code = "C42U A116G"
measured_property = "self-cleavage"
quantitative_readout = 0.68

[[record]]
mutation_code = "A62C A67G"
measured_property = "self-cleavage"
quantitative_readout = 0.86

[[record]]
mutation_code = "C32G"
measured_property = "self-cleavage"
quantitative_readout = 1.25

[[record]]
mutation_code = "A66G A135U"
measured_property = "self-cleavage"
quantitative_readout = 1.08

[[record]]
mutation_code = "A62U A116G"
measured_property = "self-cleavage"
quantitative_readout = 1.13

[[record]]
mutation_code = "A92G A126U"
measured_property = "self-cleavage"
quantitative_readout = 0.78

[[record]]
mutation_code = "A54U G74U"
measured_property = "self-cleavage"
quantitative_readout = 0.02

[[record]]
mutation_code = "U97A U103C"
measured_property = "self-cleavage"
quantitative_readout = 1.63

[[record]]
mutation_code = "C76G"
measured_property = "self-cleavage"
quantitative_readout = 0.16

[[record]]
mutation_code = "A52U A86G"
measured_property = "self-cleavage"
quantitative_readout = 1.61

[[record]]
mutation_code = "A60G G106A"
measured_property = "self-cleavage"
quantitative_readout = 0.02

[[record]]
mutation_code = "A67G U127C"
measured_property = "self-cleavage"
quantitative_readout = 1.16

[[record]]
mutation_code = "U37C A63G"
measured_property = "self-cleavage"
quantitative_readout = 0.79

[[record]]
mutation_code = "A96G U139C"
measured_property = "self-cleavage"
quantitative_readout = 1.42

[[record]]
mutation_code = "A111U U124C"
measured_property = "self-cleavage"
quantitative_readout = 0.08

[[record]]
mutation_code = "U3C U39C"
measured_property = "self-cleavage"
quantitative_readout = 1.15

[[record]]
mutation_code = "A55G A66G"
measured_property = "self-cleavage"
quantitative_readout = 1.4

[[record]]
mutation_code = "A23C A96G"
measured_property = "self-cleavage"
quantitative_readout = 1.33

[[record]]
mutation_code = "A47U U133C"
measured_property = "self-cleavage"
quantitative_readout = 0.97

[[record]]
mutation_code = "A60U A63G"
measured_property = "self-cleavage"
quantitative_readout = 0.71

[[record]]
mutation_code = "A33G G138A"
measured_property = "self-cleavage"
quantitative_readout = 0.65

[[record]]
mutation_code = "C10U G106C"
measured_property = "self-cleavage"
quantitative_readout = 0.03

[[record]]
mutation_code = "A110G U124C"
measured_property = "self-cleavage"
quantitative_readout = 0.14

[[record]]
mutation_code = "A78G C81A"
measured_property = "self-cleavage"
quantitative_readout = 0.1

[[record]]
mutation_code = "A94U U120C"
measured_property = "self-cleavage"
quantitative_readout = 1.1

[[record]]
mutation_code = "A5G A135G"
measured_property = "self-cleavage"
quantitative_readout = 2.3

[[record]]
mutation_code = "A90G"
measured_property = "self-cleavage"
quantitative_readout = 0.95

[[record]]
mutation_code = "U9C A60U"
measured_property = "self-cleavage"
quantitative_readout = 1.9

[[record]]
mutation_code = "U3C A36U"
measured_property = "self-cleavage"
quantitative_readout = 1.33

[[record]]
mutation_code = "G48A U102A"
measured_property = "self-cleavage"
quantitative_readout = 1.1

[[record]]
mutation_code = "U100A C105U"
measured_property = "self-cleavage"
quantitative_readout = 0.03

[[record]]
mutation_code = "A36G U57C"
measured_property = "self-cleavage"
quantitative_readout = 1.27

[[record]]
mutation_code = "A60U A82U"
measured_property = "self-cleavage"
quantitative_readout = 0.45

[[record]]
mutation_code = "A63G U127C"
measured_property = "self-cleavage"
quantitative_readout = 0.58

[[record]]
mutation_code = "A52G A59U"
measured_property = "self-cleavage"
quantitative_readout = 1.28

[[record]]
mutation_code = "U26A A96G"
measured_property = "self-cleavage"
quantitative_readout = 1.39

[[record]]
mutation_code = "A24C A55G"
measured_property = "self-cleavage"
quantitative_readout = 1.52

[[record]]
mutation_code = "A63U A118U"
measured_property = "self-cleavage"
quantitative_readout = 1.02

[[record]]
mutation_code = "A24C U132C"
measured_property = "self-cleavage"
quantitative_readout = 1.46

[[record]]
mutation_code = "U122C A140U"
measured_property = "self-cleavage"
quantitative_readout = 1.13

[[record]]
mutation_code = "U9A A24C"
measured_property = "self-cleavage"
quantitative_readout = 0.99

[[record]]
mutation_code = "U26G A52C"
measured_property = "self-cleavage"
quantitative_readout = 0.7

[[record]]
mutation_code = "A59G U131A"
measured_property = "self-cleavage"
quantitative_readout = 1.54

[[record]]
mutation_code = "A36U U43A"
measured_property = "self-cleavage"
quantitative_readout = 1.85

[[record]]
mutation_code = "A47G A118G"
measured_property = "self-cleavage"
quantitative_readout = 0.41

[[record]]
mutation_code = "C113A A140G"
measured_property = "self-cleavage"
quantitative_readout = 0

[[record]]
mutation_code = "U38C A64G"
measured_property = "self-cleavage"
quantitative_readout = 1.45

[[record]]
mutation_code = "A96G C101U"
measured_property = "self-cleavage"
quantitative_readout = 0.4

[[record]]
mutation_code = "A78U A91U"
measured_property = "self-cleavage"
quantitative_readout = 0.8

[[record]]
mutation_code = "U39G"
measured_property = "self-cleavage"
quantitative_readout = 0.79

[[record]]
mutation_code = "A94G U122C"
measured_property = "self-cleavage"
quantitative_readout = 1.21

[[record]]
mutation_code = "A110U C113U"
measured_property = "self-cleavage"
quantitative_readout = 0.02

[[record]]
mutation_code = "G31A U139C"
measured_property = "self-cleavage"
quantitative_readout = 1.82

[[record]]
mutation_code = "A78G U120A"
measured_property = "self-cleavage"
quantitative_readout = 0.22

[[record]]
mutation_code = "A13U A66U"
measured_property = "self-cleavage"
quantitative_readout = 1.15

[[record]]
mutation_code = "C6A U57C"
measured_property = "self-cleavage"
quantitative_readout = 0.36

[[record]]
mutation_code = "U37G A91G"
measured_property = "self-cleavage"
quantitative_readout = 1.82

[[record]]
mutation_code = "U19C A64U"
measured_property = "self-cleavage"
quantitative_readout = 1.45

[[record]]
mutation_code = "A27G A63G"
measured_property = "self-cleavage"
quantitative_readout = 1.49

[[record]]
mutation_code = "A11C A118G"
measured_property = "self-cleavage"
quantitative_readout = 2.4

[[record]]
mutation_code = "U100C U132A"
measured_property = "self-cleavage"
quantitative_readout = 1.03

[[record]]
mutation_code = "U57G A68G"
measured_property = "self-cleavage"
quantitative_readout = 1.53

[[record]]
mutation_code = "U120C C128A"
measured_property = "self-cleavage"
quantitative_readout = 0.69

[[record]]
mutation_code = "A78G G106A"
measured_property = "self-cleavage"
quantitative_readout = 0.03

[[record]]
mutation_code = "A59U A69G"
measured_property = "self-cleavage"
quantitative_readout = 1.51

[[record]]
mutation_code = "U2A A56G"
measured_property = "self-cleavage"
quantitative_readout = 0.89

